PROTOCOL_DETAILS: Lipophilicity, log D of compound
CONDITION_INFO: octanol/water
RESULT_TYPE: logD
No unit in the answer, please; the number alone is enough.

Fill blank: measured logD of the compound Cc1ccccc1Nc1ncnc2c1oc1ccccc12 is ____.
3.77

Fill blank: measured logD of the compound CN(C)c1nc2ccc(Cl)cc2s1 is ____.
2.04

Fill blank: measured logD of the compound CCCCN1CCC(CCC(=O)c2cc(Cl)c(N)cc2OC)CC1 is ____.
1.91

Fill blank: measured logD of the compound c1ccc2c(c1)oc1c(Nc3ccncc3)ncnc12 is ____.
2.98

Fill blank: measured logD of the compound COc1cc(N)c(Cl)cc1C(=O)CCC1CCNCC1 is ____.
0.01

Data provenance: ChEMBL document CHEMBL4266045
